- study.target: human CD33 variant Y50R (human, UniProt P20138 18-364)
- Sequence (P20138 18-364 Y50R limits assumed): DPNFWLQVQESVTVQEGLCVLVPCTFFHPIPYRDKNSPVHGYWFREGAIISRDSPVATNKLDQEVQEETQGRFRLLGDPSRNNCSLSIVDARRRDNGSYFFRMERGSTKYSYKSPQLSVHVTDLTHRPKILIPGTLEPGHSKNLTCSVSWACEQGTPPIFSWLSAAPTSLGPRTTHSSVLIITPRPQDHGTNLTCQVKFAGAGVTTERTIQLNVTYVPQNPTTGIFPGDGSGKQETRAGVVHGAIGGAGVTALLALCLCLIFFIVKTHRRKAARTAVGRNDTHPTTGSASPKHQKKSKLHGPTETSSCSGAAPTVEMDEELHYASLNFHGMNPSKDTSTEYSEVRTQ
- protocol.text: flow cytometry, IgG on cells expressing the mutant
readout.label: Mean % WT Binding

Previously resolved entries follow.
>>> endpoint_value("Refmab #4 (antibody, human IgG1, V domains shown, Tested in IgG format; human IgG1 Fc silent (PG-LALA)) VH: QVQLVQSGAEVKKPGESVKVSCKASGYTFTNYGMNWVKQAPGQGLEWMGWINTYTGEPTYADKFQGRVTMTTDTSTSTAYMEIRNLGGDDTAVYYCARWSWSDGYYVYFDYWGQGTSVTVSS VL: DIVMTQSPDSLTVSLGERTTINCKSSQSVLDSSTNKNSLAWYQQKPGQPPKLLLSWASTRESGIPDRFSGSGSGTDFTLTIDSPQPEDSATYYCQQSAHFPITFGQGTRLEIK")
"0.3 % of WT"
>>> endpoint_value("Refmab #3 (antibody, human IgG1, V domains shown, Tested in IgG format; human IgG1 Fc silent (PG-LALA)) VH: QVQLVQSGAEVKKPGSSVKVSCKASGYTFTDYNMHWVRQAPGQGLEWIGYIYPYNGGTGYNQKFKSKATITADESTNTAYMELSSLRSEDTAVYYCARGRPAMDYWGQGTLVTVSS VL: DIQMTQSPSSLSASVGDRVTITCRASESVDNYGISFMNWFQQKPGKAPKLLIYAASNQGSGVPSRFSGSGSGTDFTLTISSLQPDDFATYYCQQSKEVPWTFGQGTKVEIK")
"83 % of WT"
>>> endpoint_value("Refmab #2 (antibody, human IgG1, V domains shown, Tested in IgG format; human IgG1 Fc silent (PG-LALA)) VH: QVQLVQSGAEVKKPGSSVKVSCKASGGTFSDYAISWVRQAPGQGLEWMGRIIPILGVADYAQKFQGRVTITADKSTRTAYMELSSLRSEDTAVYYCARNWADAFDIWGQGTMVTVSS VL: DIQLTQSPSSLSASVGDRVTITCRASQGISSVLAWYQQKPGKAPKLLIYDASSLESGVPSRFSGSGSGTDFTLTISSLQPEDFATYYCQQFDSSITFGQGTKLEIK")
"109 % of WT"

Proceed to the following item.
Request: # input binder: Refmab #1 (antibody, human IgG1, V domains shown, Tested in IgG format; human IgG1 (Absolute Antibody hP67.6, Cat. No. Ab00283-10.0); also called hP67.6) VH: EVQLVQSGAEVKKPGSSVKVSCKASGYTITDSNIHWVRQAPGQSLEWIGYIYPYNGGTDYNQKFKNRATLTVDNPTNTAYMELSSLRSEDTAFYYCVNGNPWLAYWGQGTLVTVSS VL: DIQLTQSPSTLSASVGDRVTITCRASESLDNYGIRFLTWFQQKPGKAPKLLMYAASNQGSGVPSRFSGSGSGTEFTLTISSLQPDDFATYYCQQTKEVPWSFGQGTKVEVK ; wanted: its Mean % WT Binding
Response: 94.1 % of WT
